This collection of values is drawn from patent US20240270821A1.

Target: hGLP-1R (Homo sapiens)
Sequence (P43220 24-463): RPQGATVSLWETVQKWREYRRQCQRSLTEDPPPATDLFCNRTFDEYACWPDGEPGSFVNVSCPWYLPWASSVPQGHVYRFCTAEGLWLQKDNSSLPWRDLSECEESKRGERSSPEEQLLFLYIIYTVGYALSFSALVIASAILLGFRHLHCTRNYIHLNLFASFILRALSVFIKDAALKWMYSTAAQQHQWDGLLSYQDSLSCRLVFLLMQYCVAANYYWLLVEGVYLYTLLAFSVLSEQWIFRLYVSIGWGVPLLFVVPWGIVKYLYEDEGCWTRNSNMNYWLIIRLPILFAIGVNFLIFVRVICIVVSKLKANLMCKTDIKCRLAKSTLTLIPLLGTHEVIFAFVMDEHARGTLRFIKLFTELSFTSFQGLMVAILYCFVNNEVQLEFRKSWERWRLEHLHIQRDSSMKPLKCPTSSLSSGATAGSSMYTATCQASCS
Assay: Functional cAMP activity in the presence of 1% HSA
Assay type: cell-based
Conditions: read-out: cAMP Rel EC50, hGLP-1R
Starred links: 1 amine or outer side, 2 acyl side, 3 side chain; linkers in the order of their positions; H or OH if unused. Non-standard residues stand in square brackets, D forms with d. Groups on a side chain read outwards from the residue. *: point of attachment. C18 diacid = O=C(O)CCCCCCCCCCCCCCCCC(=O)*; αMePhe(2-F) = C[C@](N)(Cc1ccccc1F)C(=O)O; γGlu = O=C(O)[C@H](CCC(=O)[*:2])N[*:1]; αMe4Pal = C[C@](N)(Cc1ccncc1)C(=O)O; αMeY = C[C@](N)(Cc1ccc(O)cc1)C(=O)O; 4Pal = N[C@@H](Cc1ccncc1)C(=O)O; αMeL = CC(C)C[C@](C)(N)C(=O)O; αMeS = C[C@](N)(CO)C(=O)O; Orn = NCCC[C@H](N)C(=O)O; AEEA = NCCOCCOCC(=O)O; Aib = CC(C)(N)C(=O)O
Entries and their measured pEC50 follow.
Give only the number. pEC50 is defined as minus log10 of concentration in molar units.

Please review the following examples before continuing.
{"columns": ["SUBSTANCE", "pEC50"],
 "data": [
  ["H-Y[Aib]QGTFTSD[4Pal]SR[αMeL]LDKK([AEEA-γGlu-C18 diacid])AQ[Aib]AFIE[αMeY]LLEGGPSSGAPPPSGS-NH2 [Example 909]", 6.61],
  ["H-Y[Aib]QGTFTSDFS[Orn][αMeL]LDKK([AEEA-γGlu-C18 diacid])AQ[Aib]AFIEYLLE[Aib]GPSSGAPPPSGE-NH2 [Example 110]", 6.09],
  ["H-Y[Aib]QGTFTSDFS[Orn][αMeL]LDKK([AEEA-γGlu-C18 diacid])AQ[Aib]AFIEYLLEGGESSGAPPPGGS-NH2 [Example 161]", 6.02],
  ["H-Y[Aib]QGT[αMePhe(2-F)]TSD[4Pal][αMeS]I[αMeL]LD[Orn]K([γGlu-γGlu-C18 diacid])AQ[αMe4Pal]EFI[dE][αMeY]LVEGGPSSGEPPPSGSE-NH2 [Example 1163]", 7.45]
]}

Kindly review the next substance as well.
State its pEC50 for this substance: H-Y[Aib]QGT[αMePhe(2-F)]TSD[4Pal][αMeS]I[αMeL]LD[Orn]K([γGlu-γGlu-C18 diacid])AQ[Aib][Orn]FI[dE][αMeY]LSEGGPSSGEPPPSGGEE-NH2 [Example 568]
6.94
